Molecular target: natural β-amyloid peptide β-AP1-40 (human)
Test: cell-based or functional assay
READOUT_KIND: Fold Increase in Lag Time; nucleation assay; 100 mole % (fold)
Numbers only; they are read as fold.

Exercise: Suppose we examine the binder DAEFRHDSGYEVHHQAEDVGSNKGAIIGLMVGGVV [Aβ1-15, 21-40(Δ16-20)] ; what Fold Increase in Lag Time; nucleation assay; 100 mole % value has been reported?
Solution: 1.55

Exercise: Suppose we examine the binder SNKGAIIGLMVGGVV [unmodified Aβ26-40] ; what Fold Increase in Lag Time; nucleation assay; 100 mole % value has been reported?
Solution: 0.8

Exercise: Suppose we examine the binder DAEFRHDSGYEVHHQKLVFFSNKGAIIGLMVGGVV [Aβ1-20, 26-40(Δ21-25)] ; what Fold Increase in Lag Time; nucleation assay; 100 mole % value has been reported?
Solution: 2.37

Exercise: Suppose we examine the binder HDSGYEVHHQKLVFF [unmodified Aβ6-20] ; what Fold Increase in Lag Time; nucleation assay; 100 mole % value has been reported?
Solution: 1.66
